B1: ANKRD40 (parent)
chain: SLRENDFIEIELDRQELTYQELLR

- Variants of: B1
- test: protein stability index of a GFP-peptide fusion (GPS, HEK-293T) (PSI 1-6); higher = more stable;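 note: lentivirally expressed fusions sorted by FACS into six bins by GFP to DsRed ratio, PSI derived from sequencing read proportions per bin multiplied by bin number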
- experimental_parameters: c terminus: a fixed tail appended
Classification field: Criterion met = protein stability index at or over 3; Criterion not met = protein stability index under 3.

Request: Is protein stability index at least 3? Consider E9G
Result: Criterion met

Request: Is protein stability index at least 3? Consider E11Q
Result: Criterion not met

Request: Is protein stability index at least 3? Consider D13I
Result: Criterion not met

Request: Is protein stability index at least 3? Consider F7S
Result: Criterion met

Request: Is protein stability index at least 3? Consider E21W
Result: Criterion not met

Request: Is protein stability index at least 3? Consider S1W
Result: Criterion not met

Request: Is protein stability index at least 3? Consider E21V
Result: Criterion not met

Request: Is protein stability index at least 3? Consider E16D
Result: Criterion met

Request: Is protein stability index at least 3? Consider L2S
Result: Criterion met

Request: Is protein stability index at least 3? Consider E4M
Result: Criterion not met

Request: Is protein stability index at least 3? Consider R3P
Result: Criterion met

Request: Is protein stability index at least 3? Consider L2Y
Result: Criterion not met

Request: Is protein stability index at least 3? Consider E16Q
Result: Criterion met

Request: Is protein stability index at least 3? Consider E21L
Result: Criterion not met

Request: Is protein stability index at least 3? Consider D13A
Result: Criterion not met

Request: Is protein stability index at least 3? Consider E9F
Result: Criterion not met

Request: Is protein stability index at least 3? Consider R24K
Result: Criterion met

Request: Is protein stability index at least 3? Consider E4K
Result: Criterion not met
